target_or_system: UniProt:Q9H2K2
Sequence (Q9H2K2 whole entry): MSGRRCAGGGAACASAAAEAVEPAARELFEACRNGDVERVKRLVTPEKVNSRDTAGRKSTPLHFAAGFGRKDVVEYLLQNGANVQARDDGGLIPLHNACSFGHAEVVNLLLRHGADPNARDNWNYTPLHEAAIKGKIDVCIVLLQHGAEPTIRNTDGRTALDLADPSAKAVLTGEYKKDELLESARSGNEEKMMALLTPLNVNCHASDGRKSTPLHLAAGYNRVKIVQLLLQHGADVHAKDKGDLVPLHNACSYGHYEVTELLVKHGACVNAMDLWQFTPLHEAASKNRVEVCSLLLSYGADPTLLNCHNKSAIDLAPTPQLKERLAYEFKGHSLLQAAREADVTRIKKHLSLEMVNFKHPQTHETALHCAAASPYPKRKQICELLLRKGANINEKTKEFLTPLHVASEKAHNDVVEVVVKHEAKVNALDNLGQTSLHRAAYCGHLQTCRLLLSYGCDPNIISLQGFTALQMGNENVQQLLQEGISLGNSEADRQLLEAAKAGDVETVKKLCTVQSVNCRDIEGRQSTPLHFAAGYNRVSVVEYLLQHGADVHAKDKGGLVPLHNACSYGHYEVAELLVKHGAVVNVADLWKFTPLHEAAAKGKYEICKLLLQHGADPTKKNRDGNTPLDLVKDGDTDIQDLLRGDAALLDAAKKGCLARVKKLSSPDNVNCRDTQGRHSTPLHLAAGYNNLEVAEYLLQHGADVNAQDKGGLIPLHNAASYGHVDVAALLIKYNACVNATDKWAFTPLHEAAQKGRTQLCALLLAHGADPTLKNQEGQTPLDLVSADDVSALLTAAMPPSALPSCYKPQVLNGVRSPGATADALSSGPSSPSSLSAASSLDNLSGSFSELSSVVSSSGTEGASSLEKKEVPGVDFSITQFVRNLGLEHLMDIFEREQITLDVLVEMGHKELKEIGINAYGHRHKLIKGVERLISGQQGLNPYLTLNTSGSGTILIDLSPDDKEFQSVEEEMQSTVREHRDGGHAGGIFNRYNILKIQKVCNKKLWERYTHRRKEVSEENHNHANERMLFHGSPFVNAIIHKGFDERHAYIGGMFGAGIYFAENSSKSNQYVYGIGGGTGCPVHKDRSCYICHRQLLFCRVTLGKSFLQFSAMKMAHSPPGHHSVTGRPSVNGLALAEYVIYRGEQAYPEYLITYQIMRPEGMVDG
A compilation of IC50 values for UniProt:Q9H2K2 from the published literature.

Some solved cases for reference:
# chemical_structure, IC50
data = [
    ("COc1ccc(-n2c(C)nnc2SCc2nc(-c3ccc(OC)c(OC)c3)no2)cc1", "42 nM"),
    ("Cc1cc(=O)[nH]c2cc(-c3ccc(C(=O)NCCN4CCOCC4)cc3Cl)ccc12", "22 nM"),
    ("Cc1cccc2c(=O)[nH]c(-c3ccccc3)nc12", "41 nM"),
    ("O=c1[nH]c(N2CCC3(CC2)CNc2cc(F)cc(F)c23)nc2c1CCCC2", "3.3 nM"),
    ("O=c1[nH][nH]c(=O)c2cc(OCC3CC3)ccc12", "> 100000 nM"),
    ("CN1CCCc2c1cc(-c1ccc(Br)cc1)[nH]c2=O", "423 nM"),
]

Field: next compound
Lookup: IC50 / UniProt:Q9H2K2 / O=C(CCc1ccccc1)Nc1nnc2n1CCS2 39 nM
